# systemUnderTest: 4H_GCN4
# Sequence (chain, as listed by the source): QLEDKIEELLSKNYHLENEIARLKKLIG
# assayInfo: two-hybrid library CCmax;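 also: natural log of median RNA to DNA barcode read ratio; higher means stronger binding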
observationType: interaction score

Some solved cases for reference:
> print(dat)
                                     binder    observationtype  observedresult
1  DKIAALKAENAALEAKIAALEAEIAALEG [4H2721-AA]  interaction score           -1.31
2  DEIAALEAENAALEAKIAALKAKNAALEG [4H175-AA]  interaction score              -1
3  DEIAALEAENAALEAEIAALKAENAALKG [4H140-AA]  interaction score           -0.95

A. DKNAALKAEIAALEAEIAALEAKIAALKG [4H3590-AA]
B. DEIAALEAENAALEAEIAALEAKIAALKG [4H134-AA]
Param metric = interaction score; output whichever of A , B has the minimum value. Provide the label of your selected option as the answer.
A
(A: -1.16, B: 1.94)

I. DEIAALEAKIAALKAENAALEAEIAALEG [4H337-AA]
II. DEIAALEAKIAALKAENAALKAENAALEG [4H347-AA]
Which of the two items, I and II , has the greater recorded interaction score? Provide the label of your selected option as the answer.
I
